Provenance of the data: patent US20190367619A1

Target: T1, human galectin-10-His (human)
T1 construct: The last M of the tag may be Met1 of galectin-10; also called humanGal10-His; hGal10
T1 chain: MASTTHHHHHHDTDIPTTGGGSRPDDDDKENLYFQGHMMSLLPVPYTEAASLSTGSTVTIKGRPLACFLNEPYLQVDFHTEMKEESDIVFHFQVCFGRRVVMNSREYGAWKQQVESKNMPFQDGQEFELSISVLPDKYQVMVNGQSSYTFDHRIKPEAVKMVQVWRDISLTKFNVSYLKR
Assay: SPR Biacore (summary table)
Sorting guide: entries reporting koff beneath 0.0008 s⁻¹ go in the MET pile, the rest go in the NOT MET pile.

Binder: 10A06 scFv-human Fc (Fc fusion, also called 010A06; not shown: CH2-CH3 constant domains of human IgG1 (pUPEX50 scFv-Fc fusion vector)) scFv: QVQLVESGGGLVQPGGSLRLSCAASGFTFGNYDMSWVRQAPGKGPEWVSDINSGGGSTYYADSVKGRFTISRDNAKNSLLLQMNSLKPEDTAVYYCATGYTGYYYWGQGTQVTVSSGGGGSGGGGSGGGGSQTVVTQEPSLSVSPGGTVTLTCGLSSGSVTSSNYPAWYQQTPGQAPRALIYSINSRHSGVPDRFSGSISGNKAALTITGAQAEDEADYYCTLYMGTGSNNVVFGGGTHLTVL
Assigned Label: MET
--
Binder: 11F12 scFv-human Fc (Fc fusion, also called 011F12; not shown: CH2-CH3 constant domains of human IgG1 (pUPEX50 scFv-Fc fusion vector)) scFv: QVQLQESGGGLVQPGGSLRLSCAASGFTFSTNYMNWVRQAPGKGLEWVSGITSGGGRTYYADSVKGRFTISRDNAKNTLYLQMNSLKPEDTALYYCARTDHAWLDAWGQGTLVTVSSGGGGSGGGGSGGGGSHSAVTQPPSVSGTLGKTVTISCAGTSSDVGYGNYVSWYQHLPGTAPKLLIYAVSTRASGVPDRFSGSKSGNTASLTISGLQSEDEGDYYCASYSVRNNVVFGGGTRLTVL
Assigned Label: MET
--
Binder: 11F02 scFv-human Fc (Fc fusion, also called 011F02; not shown: CH2-CH3 constant domains of human IgG1 (pUPEX50 scFv-Fc fusion vector)) scFv: ELQVVESGGGLVQPGGSLRLSCAASGFTFSTNYMNWVRQAPGKGLEWVSGITSHGARTYYADSVKGRFTISRDNSKNTLYLQMNSLKPEDTALYYCARTDHASLDAWGQGTLVTVSSGGGGSGGGGSGGGGSQTVVTQEPSLSVSPGGTVTLTCGLSSGSVTSSNYPGWYQQKPGQAPRTLIYNTNSRYSGVPNRFSGSISGNKAALTITGAQPEDEADYYCALYMGSSSYNTVFGGGTHLTVL
Assigned Label: NOT MET
--
Binder: 7B07 scFv-human Fc (Fc fusion, also called 007B07; not shown: CH2-CH3 constant domains of human IgG1 (pUPEX50 scFv-Fc fusion vector)) scFv: QVQLVESGGGLVQPGGSLRLSCAASGFTFRSYDMSWVRQAPGKGPEWVSAIKNGGGITYYADSVKGRFTISRDNAKNTLYLQMNSLKPEDTAVYYCATTHGIGTLGFGSWGQGTQVTVSSGGGGSGGGGSGGGGSSYELTQSASVSVALTQTAKITCDGNNIGSKSAQWYQQKPGQAPALVIYADEYRPEGIPERFSGSNSGNTATLIISGAQAEDEADYYCQVWDGSAAVFGRGTHLTVL
Assigned Label: NOT MET

Now consider a different binder.
Is the reported koff for 10D02 scFv-human Fc (Fc fusion, also called 010D02; not shown: CH2-CH3 constant domains of human IgG1 (pUPEX50 scFv-Fc fusion vector)) scFv: EVQLVESGGGLVQPGGSLRVSCAASGFTFSSYYMSWVRQAPGKGLEWVSGIVTGGGRTHYTDSVKGRFTITRDNAKNTLYLQMNSLRPEDTALYYCARVNGVVTNYDYWGQGTQVTVSSGGGGSGGGGSGGGGSQAVLTQPPSVSGSPGKTVTISCAGTSSDVGYGNYVSWYQQLPGMAPKLLIYDVNKRASGITDRFSGSKSGNTASLTISGLQSEDEADYFCASYRSPNNVVFGQGTHLTVL strictly below 0.0008 s⁻¹?
MET
